Entries and their measured pKd follow.
target: T1, histidine-tagged human Siglec-7 (NovoProtein) (human, UniProt Q9Y286 19-353); experiment: BLI, antibody captured
T1 construct: Bought protein; also called recombinant human Siglec-7; recombinant Siglec-7; not shown: histidine tag
T1 sequence (Q9Y286 19-353 limits assumed): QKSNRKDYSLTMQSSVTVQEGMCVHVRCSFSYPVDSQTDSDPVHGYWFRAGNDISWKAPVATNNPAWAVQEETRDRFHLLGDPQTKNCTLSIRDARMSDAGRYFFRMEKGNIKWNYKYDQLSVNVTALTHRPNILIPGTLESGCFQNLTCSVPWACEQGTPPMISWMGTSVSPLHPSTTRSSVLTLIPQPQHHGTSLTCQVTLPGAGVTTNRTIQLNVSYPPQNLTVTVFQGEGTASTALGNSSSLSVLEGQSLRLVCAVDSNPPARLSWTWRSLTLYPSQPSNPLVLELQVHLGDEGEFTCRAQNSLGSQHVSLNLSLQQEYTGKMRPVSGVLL
Scale for pKd: -log10 of concentration given in mol/L; no unit attached.

Consider the worked cases shown below.
{"Binder": "S7AB-H8.34 (antibody, V domains shown) VH: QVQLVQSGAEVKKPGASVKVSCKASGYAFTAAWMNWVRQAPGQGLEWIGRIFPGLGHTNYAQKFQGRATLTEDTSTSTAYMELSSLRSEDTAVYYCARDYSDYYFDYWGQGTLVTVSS VL: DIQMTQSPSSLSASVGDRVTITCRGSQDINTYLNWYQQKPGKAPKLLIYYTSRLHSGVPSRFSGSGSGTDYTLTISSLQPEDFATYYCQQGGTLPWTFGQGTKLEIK", "pKd": 9.63}
{"Binder": "S7AB-H8.31 (antibody, V domains shown) VH: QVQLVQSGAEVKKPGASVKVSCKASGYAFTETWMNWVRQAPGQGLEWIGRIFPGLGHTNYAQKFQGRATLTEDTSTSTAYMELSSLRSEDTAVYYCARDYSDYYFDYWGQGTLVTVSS VL: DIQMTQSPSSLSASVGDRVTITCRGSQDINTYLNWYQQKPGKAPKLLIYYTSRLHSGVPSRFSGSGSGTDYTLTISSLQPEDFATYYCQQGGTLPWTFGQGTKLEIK", "pKd": 9.13}
{"Binder": "S7AB-H8.23 (antibody, V domains shown) VH: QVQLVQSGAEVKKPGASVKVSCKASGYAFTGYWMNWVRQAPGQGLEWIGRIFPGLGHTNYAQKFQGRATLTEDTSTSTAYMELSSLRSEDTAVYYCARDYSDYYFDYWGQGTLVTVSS VL: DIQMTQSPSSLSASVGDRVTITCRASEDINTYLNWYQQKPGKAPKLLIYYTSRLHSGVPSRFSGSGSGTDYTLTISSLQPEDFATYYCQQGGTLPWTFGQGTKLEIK", "pKd": 9.63}

Request: Which measured pKd value corresponds to S7AB-H8.15 (antibody, V domains shown) VH: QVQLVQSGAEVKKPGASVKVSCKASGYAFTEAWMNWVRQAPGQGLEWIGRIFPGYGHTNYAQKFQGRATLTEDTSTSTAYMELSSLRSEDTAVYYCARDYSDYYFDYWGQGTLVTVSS VL: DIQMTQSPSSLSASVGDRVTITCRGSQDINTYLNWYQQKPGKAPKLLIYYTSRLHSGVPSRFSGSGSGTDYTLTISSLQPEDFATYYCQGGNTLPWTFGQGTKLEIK ?
Response: 8.59

Request: Next entry: S7AB-H8.5 (antibody, V domains shown) VH: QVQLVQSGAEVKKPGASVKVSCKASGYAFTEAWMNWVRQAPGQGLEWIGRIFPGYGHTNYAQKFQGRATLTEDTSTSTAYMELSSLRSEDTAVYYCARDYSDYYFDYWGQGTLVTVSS VL: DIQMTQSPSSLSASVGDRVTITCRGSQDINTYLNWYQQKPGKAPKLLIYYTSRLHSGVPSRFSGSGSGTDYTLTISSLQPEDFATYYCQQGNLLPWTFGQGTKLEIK
Response: 9.45

Hello, the source for this data is patent US20210246204A1, in case you need it.
